# ASSAY: Noncompartmental PK of rutin after intravenous administration of pure rutin or P. peruviana extract
# Type: in vivo, New Zealand White rabbits
# MEASUREMENT SETUP: male, New Zealand White, rabbit, plasma, iv; rutin; pure rutin 0.37 mg/kg, extract equivalent to 1.48 mg/kg of rutin; NCA; mean ± SD, n = 5
TEST READOUT: MRT (h)
Respond numerically; units are h and should not be typed.

[ask] Recorded MRT of C[C@@H]1O[C@@H](OC[C@H]2O[C@@H](Oc3c(-c4ccc(O)c(O)c4)oc4cc(O)cc(O)c4c3=O)[C@H](O)[C@@H](O)[C@@H]2O)[C@H](O)[C@H](O)[C@H]1O [Pure Rutin, quercetin-3-O-rutinoside] , please.
[reply] 3.63
